src = paper PMC6095690

The following compounds have recorded type of activity at schistosome 5-HTRs on Sm.5HTRL (Schistosoma mansoni, UniProt A0A173FEI8).
Sequence (A0A173FEI8 1-547): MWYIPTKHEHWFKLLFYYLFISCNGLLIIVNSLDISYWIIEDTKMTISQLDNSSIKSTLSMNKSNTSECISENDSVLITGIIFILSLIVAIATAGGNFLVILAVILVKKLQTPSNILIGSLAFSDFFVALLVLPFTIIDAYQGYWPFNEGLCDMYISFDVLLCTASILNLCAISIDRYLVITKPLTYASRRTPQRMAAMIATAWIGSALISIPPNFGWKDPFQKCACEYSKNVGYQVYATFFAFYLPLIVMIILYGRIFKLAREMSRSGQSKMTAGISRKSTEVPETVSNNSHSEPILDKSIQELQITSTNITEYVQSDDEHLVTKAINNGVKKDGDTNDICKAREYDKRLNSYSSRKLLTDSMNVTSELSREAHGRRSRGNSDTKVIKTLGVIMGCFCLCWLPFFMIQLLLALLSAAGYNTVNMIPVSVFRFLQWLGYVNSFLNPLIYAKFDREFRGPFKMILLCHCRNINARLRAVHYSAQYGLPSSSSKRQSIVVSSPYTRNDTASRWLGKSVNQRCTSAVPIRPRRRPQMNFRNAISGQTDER

Below: 4 compounds and their reported type of activity at schistosome 5-HTRs.
{"compound": "CN1C[C@H](C(=O)N[C@]2(C)O[C@@]3(O)[C@@H]4CCCN4C(=O)[C@H](Cc4ccccc4)N3C2=O)C[C@@H]2c3cccc4[nH]cc(c34)C[C@H]21 [dihydroergotamine, Dihydroergotamine, reference compound]", "assay-result": "full agonists"}
{"compound": "CCN(CC)C(=O)N[C@H]1C[C@@H]2c3cccc4[nH]cc(c34)C[C@H]2N(C)C1 [terguride, Terguride, reference compound]", "assay-result": "antagonists"}
{"compound": "CN1C[C@H](C(=O)N[C@]2(C)O[C@@]3(O)[C@@H]4CCCN4C(=O)[C@H](Cc4ccccc4)N3C2=O)C=C2c3cccc4[nH]cc(c34)C[C@H]21 [ergotamine, Ergotamine]", "assay-result": "full agonists"}
{"compound": "CC(C)C[C@H]1C(=O)N2CCC[C@H]2[C@]2(O)O[C@](NC(=O)[C@@H]3C=C4c5cccc6[nH]c(Br)c(c56)C[C@H]4N(C)C3)(C(C)C)C(=O)N12 [bromocriptine, Bromocriptine]", "assay-result": "antagonists"}

Please turn your attention to the following entry.
[Q] What type of activity at schistosome 5-HTRs appears in the records for this compound with Sm.5HTRL (Schistosoma mansoni, UniProt A0A173FEI8)? CCN(CC)C(=O)[C@@H]1C=C2c3cccc4[nH]c(Br)c(c34)C[C@H]2N(C)C1 [BOL-148, 2-Bromo-LSD]
[A] antagonists

====

- test-target: Sm.5HTRL (Schistosoma mansoni, UniProt A0A173FEI8); as to (+) Sm.5HTRL fold change: test concentration or dose not given here
- condition-details: agonist hit validation
Please go through the items and note down their (+) Sm.5HTRL fold change.
Give the quantity in fold change, number only.

[Q] What (+) Sm.5HTRL fold change appears in the records for this compound with Sm.5HTRL (Schistosoma mansoni, UniProt A0A173FEI8)? CNC[C@H](O)c1ccc(O)c(O)c1 [ST069368]
[A] 60.6229

[Q] What (+) Sm.5HTRL fold change appears in the records for this compound with Sm.5HTRL (Schistosoma mansoni, UniProt A0A173FEI8)? COC(=O)C1=COC(C)C2CN3CCc4c([nH]c5cc(OC)c(OC)cc45)C3CC12.O=C(O)CC(O)(CC(=O)O)C(=O)O (stereo not drawn) [compound 72715]
[A] 54.6116

[Q] What (+) Sm.5HTRL fold change appears in the records for this compound with Sm.5HTRL (Schistosoma mansoni, UniProt A0A173FEI8)? CNCC(O)c1ccc(O)cc1 (stereo not drawn) [ST095769]
[A] 11.737

[Q] What (+) Sm.5HTRL fold change appears in the records for this compound with Sm.5HTRL (Schistosoma mansoni, UniProt A0A173FEI8)? Nc1ncnc2c1ncn2[C@@H]1O[C@H](CO)[C@@H](O)[C@H]1O [ST009496]
[A] 24.237

[Q] What (+) Sm.5HTRL fold change appears in the records for this compound with Sm.5HTRL (Schistosoma mansoni, UniProt A0A173FEI8)? Nc1ncnc2c1ncn2C1OC(CO)C(O)C1O (stereo not drawn) [compound 7652]
[A] 49.711

[Q] What (+) Sm.5HTRL fold change appears in the records for this compound with Sm.5HTRL (Schistosoma mansoni, UniProt A0A173FEI8)? COc1cc(C(=O)NCCOc2ccccc2C)cc(OC)c1OC [ST005872]
[A] 10.4008

[Q] What (+) Sm.5HTRL fold change appears in the records for this compound with Sm.5HTRL (Schistosoma mansoni, UniProt A0A173FEI8)? C=C[C@@]1(C)CC(=O)[C@@]2(O)[C@](C)(O1)[C@@H](OC(C)=O)[C@@H](O)C1C(C)(C)CC[C@H](O)[C@@]12C (stereo partly drawn) [ST095786]
[A] 95.4625

[Q] What (+) Sm.5HTRL fold change appears in the records for this compound with Sm.5HTRL (Schistosoma mansoni, UniProt A0A173FEI8)? Nc1ncnc2c1ncn2[C@@H]1O[C@H](COP(=O)(O)OP(=O)(O)O)[C@@H](O)[C@H]1O [ST057097]
[A] 11.9433

[Q] What (+) Sm.5HTRL fold change appears in the records for this compound with Sm.5HTRL (Schistosoma mansoni, UniProt A0A173FEI8)? Cc1ccc2[nH]c(CCN)cc2c1.Cl [ST070930]
[A] 17.0489

====

- test-target: Sj.5HTR (Schistosoma japonicum, UniProt A0A346LTY2)
- Sequence (A0A346LTY2 entry or part of it): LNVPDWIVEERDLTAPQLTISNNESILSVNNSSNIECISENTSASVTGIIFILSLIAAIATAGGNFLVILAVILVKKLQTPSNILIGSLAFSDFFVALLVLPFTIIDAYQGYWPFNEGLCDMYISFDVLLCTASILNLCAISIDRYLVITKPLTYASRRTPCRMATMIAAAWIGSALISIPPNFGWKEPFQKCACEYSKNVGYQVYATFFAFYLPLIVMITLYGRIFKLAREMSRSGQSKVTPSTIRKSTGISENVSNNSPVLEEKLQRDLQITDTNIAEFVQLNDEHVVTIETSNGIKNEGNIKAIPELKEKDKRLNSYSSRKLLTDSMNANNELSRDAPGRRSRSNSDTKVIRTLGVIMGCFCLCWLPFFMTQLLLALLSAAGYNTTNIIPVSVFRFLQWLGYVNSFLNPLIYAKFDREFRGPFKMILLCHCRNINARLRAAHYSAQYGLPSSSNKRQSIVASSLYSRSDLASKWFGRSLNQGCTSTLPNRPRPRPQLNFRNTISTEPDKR
- experiment-summary: cell-based
assay-readout: EC50 (nM)
Give the quantity in nM, number only.

[Q] Requested field: EC50. Item: `NCCc1c[nH]c2ccc(O)cc12`
[A] 3

====

assay-readout: IC50 (nM)
Give the quantity in nM, number only.

[Q] What IC50 appears in the records for this compound with UniProtKB A0A173FEI8? `CC(C)C[C@H]1C(=O)N2CCC[C@H]2[C@]2(O)O[C@](NC(=O)[C@@H]3C=C4c5cccc6[nH]c(Br)c(c56)C[C@H]4N(C)C3)(C(C)C)C(=O)N12`
[A] 1600

[Q] What IC50 appears in the records for this compound with UniProtKB A0A173FEI8? `CCN(CC)C(=O)[C@@H]1C=C2c3cccc4[nH]c(Br)c(c34)C[C@H]2N(C)C1`
[A] 100

[Q] What IC50 appears in the records for this compound with UniProtKB A0A173FEI8? CCN(CC)C(=O)N[C@H]1C[C@@H]2c3cccc4[nH]cc(c34)C[C@H]2N(C)C1 [terguride, Terguride, reference compound]
[A] 400

====

- test-target: Sh.5HTR (Schistosoma haematobium, UniProt A0A922S615)
- condition-details: receptor transiently transfected into stable HEK293 cAMP reporter line; read-out: EC50 of cAMP luminescence response
assay-readout: EC50 (nM)
Give the quantity in nM, number only.

[Q] Requested field: EC50. Item: NCCc1c[nH]c2ccc(O)cc12 [5-HT, serotonin]
[A] 3.6

====

Please go through the items and note down their (+) Sm.5HTRL fold change.
- test-target: Sm.5HTRL (Schistosoma mansoni, UniProt A0A173FEI8); as to (+) Sm.5HTRL fold change: test concentration or dose not given here
- condition-details: agonist hit validation
Give the quantity in fold change, number only.

[Q] Requested field: (+) Sm.5HTRL fold change. Item: Nc1nc(Cl)nc2c1ncn2C1OC(CO)C(O)C1O (stereo not shown)
[A] 23.2211

[Q] Requested field: (+) Sm.5HTRL fold change. Item: `CNC[C@@H](O)c1ccc(O)c(O)c1`
[A] 230.23

[Q] Requested field: (+) Sm.5HTRL fold change. Item: `C=C[C@]1(C)C=C2CC[C@@H]3[C@](C)(CCC[C@@]3(C)C(=O)O)[C@H]2CC1`
[A] 200.129

[Q] Requested field: (+) Sm.5HTRL fold change. Item: CC(C)NCC(O)c1ccc(O)c(O)c1 (stereo not shown)
[A] 12.8429

====

- test-target: Sm.5HTRL (Schistosoma mansoni); as to (+) Sm.5HTRL fold change: test concentration or dose not given here
- condition-details: hek293 cells
assay-readout: (+) Sm.5HTRL fold change (fold change)
Give the quantity in fold change, number only.

[Q] Requested field: (+) Sm.5HTRL fold change. Item: `Cl.NCCc1c[nH]c2ccc(Br)cc12`
[A] 15.2823

[Q] Requested field: (+) Sm.5HTRL fold change. Item: `NCCc1c[nH]c2cccc(OC(=O)c3ccc(C(=O)O)cc3)c12`
[A] 12.6864

[Q] Requested field: (+) Sm.5HTRL fold change. Item: Br.Oc1ccc(CC2NCCc3cc(O)c(O)cc32)cc1O (stereo not shown)
[A] 28.3016

[Q] Requested field: (+) Sm.5HTRL fold change. Item: `CNCCc1c[nH]c2ccc(O)cc12.O=C(O)C(=O)O`
[A] 165.214
